- Test system: CYP3A
- protocol notes: Inhibition of CYP3A-mediated midazolam 1′-hydroxylation in human liver microsomes
- Assay type: in vitro ADME
- measurement conditions: pH 7.5, probe midazolam (1′-hydroxylation); human liver microsomes, 10 μM midazolam, 30 min 37°C
measured metric: IC50 at 30 min (µM)
One number for each entry, in µM.

Reported IC50 at 30 min for COc1ccc2c(c1)N(C[C@H](C)CN(C)C)c1ccccc1S2 [Levomepromazine] was 30

###

- assayed system: CYP2D6 (Homo sapiens, UniProt P10635)
- Sequence (P10635 whole entry): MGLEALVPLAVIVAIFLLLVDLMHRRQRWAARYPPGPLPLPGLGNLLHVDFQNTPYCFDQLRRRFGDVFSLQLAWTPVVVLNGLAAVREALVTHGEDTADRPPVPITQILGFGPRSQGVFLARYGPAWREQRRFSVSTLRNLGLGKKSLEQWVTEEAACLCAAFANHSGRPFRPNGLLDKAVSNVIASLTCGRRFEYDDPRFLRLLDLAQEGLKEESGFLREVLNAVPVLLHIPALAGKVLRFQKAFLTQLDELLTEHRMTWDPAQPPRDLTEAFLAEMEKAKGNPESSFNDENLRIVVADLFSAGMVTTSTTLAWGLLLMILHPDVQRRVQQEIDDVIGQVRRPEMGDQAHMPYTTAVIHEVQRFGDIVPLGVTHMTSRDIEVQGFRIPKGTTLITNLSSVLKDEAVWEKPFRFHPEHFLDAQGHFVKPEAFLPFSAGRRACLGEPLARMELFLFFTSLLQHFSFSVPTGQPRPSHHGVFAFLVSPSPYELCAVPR
measured metric: pKi
Numbers only, as −log10 of the molar value.

Form: compound = COc1ccc2c(c1)N(C[C@H](C)CN(C)C)c1ccccc1S2 ; pKi = 4.89

###

- assayed system: UniProtKB P10635
measured metric: IC50
In your response, put the unit directly after the numeric value.

Form: compound = COc1ccc2c(c1)N(C[C@H](C)CN(C)C)c1ccccc1S2 [Levomepromazine] ; IC50 = 25.5 µM

###

- System: CYP3A
- protocol notes: Inhibition of CYP3A-mediated midazolam 1′-hydroxylation in human liver microsomes
- Assay type: in vitro ADME
- measurement conditions: pH 7.5, probe midazolam (1′-hydroxylation), 10 μM; human liver microsomes, inhibitor 0.05 to 50 μM; read-out: I max (maximum inhibition), CYP3A (1-hydroxylation)
measured metric: inhibition at 30 min (%)
Answers are plain numbers, in %.

The molecule listed as COc1ccc2c(c1)N(C[C@H](C)CN(C)C)c1ccccc1S2 [Levomepromazine] has a reported inhibition at 30 min of 58.2
